Record form. Attribute: pEC50. Fill in for each entry.
- target-system: T1, Mouse FGFR2b (Mus musculus, UniProt P21803)
- T1 construct: expressed in transfected cells; host or cells: Expi293
- T1 sequence (P21803 22-707 isoform P21803-2 limits assumed): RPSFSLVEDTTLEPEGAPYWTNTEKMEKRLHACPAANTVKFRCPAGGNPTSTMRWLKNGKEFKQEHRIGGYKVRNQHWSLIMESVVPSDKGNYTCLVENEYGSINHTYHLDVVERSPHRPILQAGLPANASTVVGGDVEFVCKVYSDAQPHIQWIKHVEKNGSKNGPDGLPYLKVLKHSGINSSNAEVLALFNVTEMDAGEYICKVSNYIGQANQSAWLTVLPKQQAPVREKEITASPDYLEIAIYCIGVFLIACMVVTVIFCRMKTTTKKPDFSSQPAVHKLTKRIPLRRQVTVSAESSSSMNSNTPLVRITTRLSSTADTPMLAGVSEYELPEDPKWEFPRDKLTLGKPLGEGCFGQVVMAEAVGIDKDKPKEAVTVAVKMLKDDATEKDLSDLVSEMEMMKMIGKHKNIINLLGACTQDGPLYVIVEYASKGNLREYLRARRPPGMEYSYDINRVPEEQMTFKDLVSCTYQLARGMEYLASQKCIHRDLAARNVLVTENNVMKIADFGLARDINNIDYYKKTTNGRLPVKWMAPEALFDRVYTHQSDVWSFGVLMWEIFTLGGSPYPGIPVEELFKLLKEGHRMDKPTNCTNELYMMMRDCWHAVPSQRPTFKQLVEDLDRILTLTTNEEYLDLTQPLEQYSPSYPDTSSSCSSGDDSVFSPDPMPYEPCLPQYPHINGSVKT
- measurement-notes: FACS binding on Expi293 cells, mouse FGFR2b (Example 10)
- recorded-conditions: Expi293 cells overexpressing mouse FGFR2b
API: returns pEC50 as number; meaning -log10 of concentration in mol/L.

Record summary for BGAm1823: parental murine anti-FGFR2b antibody; VH SEQ ID NO: 28, VL SEQ ID NO: 30 (antibody, V domains shown, Synthetic: VH AA; Synthetic: VL AA) VH: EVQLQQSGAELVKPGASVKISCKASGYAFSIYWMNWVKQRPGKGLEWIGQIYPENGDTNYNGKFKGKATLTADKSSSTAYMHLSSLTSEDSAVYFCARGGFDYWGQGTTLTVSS VL: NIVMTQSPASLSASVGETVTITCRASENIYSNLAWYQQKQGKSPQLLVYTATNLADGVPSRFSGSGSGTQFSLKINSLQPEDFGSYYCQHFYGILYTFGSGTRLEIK : reported pEC50 = 8.47

Record summary for BGAh9239: humanized anti-FGFR2b IgG1 antibody from murine BGAm1823; VH SEQ ID NO: 9, VL SEQ ID NO: 10 (antibody, V domains shown, Synthetic: VH AA; Synthetic: VL AA) VH: QVQLVQSGAEVKKPGSSVKVSCKASGYTFSIYWLNWVRQAPGQGLEWMGQIYPENADTNYSGKFKGRVTITADKSTSTAYMELSSLRSEDTAVYFCARGGFDYWGQGTLVTVSS VL: DIQMTQSPSSLSASVGDRVTITCRASENIYSNLAWYQQKPGKAPKLLIYTATNLAEGVPSRFSGSGSGTDFTLTISSLQPEDFATYYCQHFYGILYTFGQGTRLEIK : reported pEC50 = 8.57

Record summary for BGAh9179: humanized anti-FGFR2b IgG1 antibody from murine BGAm1371; VH SEQ ID NO: 21, VL SEQ ID NO: 22 (antibody, V domains shown, Synthetic: VH AA; Synthetic: VL AA) VH: QVQLVQSGAEVKKPGASVKVSCKASGYTITDTYIHWVRQAPGQGLEWMGRIDPAEGNTMFASEFQGRVTMTADTSTSTVYMELSSLRSEDTAVYYCARSKIHYDYDEGFAYWGQGTLVTVSS VL: DIVLTQSPDSLAVSLGERATINCRASESVDDYGYSFLHWYQQKPGQPPKLLIYRASNLESGVPDRFSGSGSGTDFTLTISSLQAEDVAVYYCQQSNQNPRTFGGGTKVEIK : reported pEC50 = 8.37
